Measured values drawn from patent US7858621B2 for this set.

Target: vanilloid receptor (Rattus norvegicus, UniProt O35433)
Construct: DRG nerve cells from the primary culture of 2 days were equilibrated; endogenous in cells; host or cells: primary culture of dorsal root ganglion neurons from neonatal SD rats
Sequence (O35433 whole entry): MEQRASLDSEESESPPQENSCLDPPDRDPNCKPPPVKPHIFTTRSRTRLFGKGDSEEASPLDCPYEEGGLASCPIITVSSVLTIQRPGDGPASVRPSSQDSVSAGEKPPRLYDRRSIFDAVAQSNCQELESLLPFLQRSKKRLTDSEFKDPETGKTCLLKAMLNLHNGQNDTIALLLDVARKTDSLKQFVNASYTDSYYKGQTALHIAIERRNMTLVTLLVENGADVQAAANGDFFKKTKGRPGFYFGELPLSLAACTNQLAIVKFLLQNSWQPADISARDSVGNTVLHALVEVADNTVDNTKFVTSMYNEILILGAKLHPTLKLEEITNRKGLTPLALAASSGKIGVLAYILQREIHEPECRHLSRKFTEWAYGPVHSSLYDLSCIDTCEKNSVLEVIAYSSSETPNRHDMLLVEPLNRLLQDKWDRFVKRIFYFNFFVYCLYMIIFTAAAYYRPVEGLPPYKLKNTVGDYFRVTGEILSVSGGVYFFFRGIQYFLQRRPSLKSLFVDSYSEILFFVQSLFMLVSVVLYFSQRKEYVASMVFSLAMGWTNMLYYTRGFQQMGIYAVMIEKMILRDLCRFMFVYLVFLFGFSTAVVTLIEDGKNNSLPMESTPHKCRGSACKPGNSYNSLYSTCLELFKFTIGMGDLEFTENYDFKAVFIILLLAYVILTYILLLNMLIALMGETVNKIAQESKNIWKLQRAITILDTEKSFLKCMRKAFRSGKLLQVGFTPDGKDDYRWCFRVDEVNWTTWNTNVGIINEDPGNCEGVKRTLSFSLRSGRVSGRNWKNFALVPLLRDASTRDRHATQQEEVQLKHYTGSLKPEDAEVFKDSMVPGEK
Assay: 45Ca influx test in cultured neonatal rat DRG neurons, inhibition of capsaicin response
Assay type: cell-based
Conditions: neonatal rat DRG neurons, capsaicin 0.5 μM, 45Ca influx; read-out: Antagonist Calcium Uptake Test (IC50)
measured.attribute: IC50 (nM)

Some compounds with known IC50 results, for comparison:
structure	readout.value
CS(=O)(=O)Nc1ccc(CNC(=O)/C=C/c2ccc(C(F)(F)F)nc2-c2cccc(F)c2)cc1F	780
CCCCNc1nc(C(F)(F)F)ccc1/C=C/C(=O)N[C@@H](C)c1cc(F)c(NS(C)(=O)=O)c(F)c1	200

[I] CCN(CC)c1nc(C(F)(F)F)ccc1/C=C/C(=O)NCc1ccc(NS(C)(=O)=O)c(F)c1
[II] C#Cc1cc(CNC(=O)/C=C/c2ccc(C(F)(F)F)nc2OCCCC)cc(F)c1NS(C)(=O)=O
INPUT: Param metric = IC50; output whichever of I , II has the minimum value. Mark your answer with the label of the selected entry.
OUTPUT: II

---

Test: PK study in rats, single oral administration
Format: in vivo
Details: rat, plasma
measured.attribute: Cmax (ng/mL)

Some compounds with known Cmax results, for comparison:
compound	Cmax [ng/mL]
C#Cc1cc(CNC(=O)/C=C/c2ccc(C(F)(F)F)nc2CCC)cc(F)c1NS(C)(=O)=O	5500
C#Cc1cc(CNC(=O)/C=C/c2ccc(C(F)(F)F)nc2)cc(F)c1NS(C)(=O)=O	2200
C#Cc1cc(CNC(=O)/C=C/c2ccc(C(F)(F)F)nc2N2CCOCC2)cc(F)c1NS(C)(=O)=O	723
C#Cc1cc(CNC(=O)/C=C/c2ccc(C(F)(F)F)nc2NC(C)C)cc(F)c1NS(C)(=O)=O	2530

[a] C=Cc1cc(CNC(=O)/C=C/c2ccc(C(F)(F)F)nc2N2CCOCC2)cc(F)c1NS(C)(=O)=O
[b] C#Cc1cc(CNC(=O)/C=C/c2ccc(C(C)(C)C)cc2N2CCOCC2)cc(F)c1NS(C)(=O)=O [drawing 350, reference compound]
INPUT: Of the two listed items, a and b , which carries the larger Cmax figure? Mark your answer with the label of the selected entry.
OUTPUT: b
(b: 334 ng/mL, a: 215 ng/mL)

---

Biological target: vanilloid receptor (Rattus norvegicus)
Construct: DRG nerve cells from the primary culture of 2 days were equilibrated; endogenous in cells; host or cells: primary culture of dorsal root ganglion neurons from neonatal SD rats
Assay: 45Ca influx test in cultured neonatal rat DRG neurons, inhibition of capsaicin response
Format: cell-based
Settings: neonatal rat DRG neurons, capsaicin 0.5 μM, 45Ca influx; read-out: Antagonist Calcium Uptake Test (IC50)
Protocol: 1) Separation of Spinal Dorsal Root Ganglia (DRG) in Newborn Rats and Primary Culture Thereof Neonatal (2-3 day old or younger than 2-3 day old) SD rats were put in ice for 5 minutes to anesthetize and disinfected with 70% ethanol. […] The DRG were incubated sequentially at 37° C. for 30 mins in 200 U/ml collagenase and 2.5 mg/ml trypsin, separately. […]
pIC50: −log10 of the molar value.
measured.attribute: pIC50

molecule	measured.attribute	readout.value
CS(=O)(=O)Nc1ccc(CNC(=O)/C=C/c2ccc(C(F)(F)F)nc2N2CCOCC2)cc1F	pIC50	5.82
CCCc1nc(C(F)(F)F)ccc1/C=C/C(=O)NCc1cc(F)c(NS(C)(=O)=O)c(F)c1	pIC50	6.85
CS(=O)(=O)Nc1ccc(CNC(=O)/C=C/c2ccc(C(F)(F)F)nc2OC2CCOC2)cc1F (centres unmarked)	pIC50	5.80

[P] C#Cc1cc(CNC(=O)/C=C/c2ccc(C(C)(C)C)nc2Cl)cc(F)c1NS(C)(=O)=O
[Q] C#Cc1cc(CNC(=O)/C=C/c2ccc(C(F)(F)F)nc2OC2CCOC2)cc(F)c1NS(C)(=O)=O (centres unmarked)
INPUT: Of the two listed items, P and Q , which carries the larger pIC50 figure? Mark your answer with the label of the selected entry.
OUTPUT: P
(P: 6.85, Q: 6.37)

---

Biological target: vanilloid receptor (Rattus norvegicus)
Construct: DRG nerve cells from the primary culture of 2 days were equilibrated; endogenous in cells; host or cells: primary culture of dorsal root ganglion neurons from neonatal SD rats
Experiment: 45Ca influx test in cultured neonatal rat DRG neurons, inhibition of capsaicin response
Format: cell-based
Conditions: neonatal rat DRG neurons, capsaicin 0.5 μM, 45Ca influx; read-out: Antagonist Calcium Uptake Test (IC50)
measured.attribute: IC50 (nM)

molecule	IC50 / nM
CS(=O)(=O)Nc1ccc(CNC(=O)/C=C/c2ccc(C(F)(F)F)nc2CCc2ccccc2)cc1F [Example 141]	180

[I] CS(=O)(=O)Nc1c(F)cc(CNC(=O)/C=C/c2ccc(C(F)(F)F)nc2Oc2ccccc2)cc1C#N [Example 105]
[II] C#Cc1cc(CNC(=O)/C=C/c2ccc(C(F)(F)F)nc2-c2ccc(F)nc2)cc(F)c1NS(C)(=O)=O [Example 135]
[III] CC(C)CCOc1nc(C(F)(F)F)ccc1/C=C/C(=O)NCc1cc(F)c(NS(C)(=O)=O)c(C#N)c1 [Example 118]
INPUT: Hi! Can you put these in order of IC50, lowest number first? Present the labels in the sequence the task asks for.
OUTPUT: III, I, II
(III: 200 nM, I: 630 nM, II: 2300 nM)

---

Molecular target: vanilloid receptor (Rattus norvegicus, UniProt O35433)
Construct: DRG nerve cells from the primary culture of 2 days were equilibrated; endogenous in cells; host or cells: primary culture of dorsal root ganglion neurons from neonatal SD rats
Assay: 45Ca influx test in cultured neonatal rat DRG neurons, inhibition of capsaicin response
Type: cell-based
Conditions: Table 2; unit inferred; read-out: IC50
measured.attribute: IC50 (nM)
Note: unit nM is implicit; provide only the numeric part.

INPUT: Please give the measured IC50 for this compound: C#Cc1cc(CNC(=O)/C=C/c2ccc(C(C)(C)C)cc2N2CCOCC2)cc(F)c1NS(C)(=O)=O [drawing 334, reference compound]
OUTPUT: 860

---

Target: vanilloid receptor (Rattus norvegicus)
Construct: DRG nerve cells from the primary culture of 2 days were equilibrated; endogenous in cells; host or cells: primary culture of dorsal root ganglion neurons from neonatal SD rats
Test: 45Ca influx test in cultured neonatal rat DRG neurons, inhibition of capsaicin response
Type: cell-based
Conditions: neonatal rat DRG neurons, capsaicin 0.5 μM, 45Ca influx; read-out: Antagonist Calcium Uptake Test (IC50)
measured.attribute: IC50 (nM)

Some compounds with known IC50 results, for comparison:
compound	unit.symbol	IC50
CS(=O)(=O)Nc1ccc(CNC(=O)/C=C/c2ccc(C(F)(F)F)nc2NCCO)cc1F [Example 61]	nM	4900
C#Cc1cc(CNC(=O)/C=C/c2cnc(C(C)(C)C)cc2C(F)(F)F)cc(F)c1NS(C)(=O)=O [Example 18]	nM	130
C#Cc1cc(CNC(=O)/C=C/c2ccc(C(F)(F)F)nc2Cl)cc(F)c1NS(C)(=O)=O [Example 40]	nM	980

[I] CCCc1nc(C(F)(F)F)ccc1/C=C/C(=O)NCc1ccc(NS(C)(=O)=O)c(Cl)c1 [Example 253]
[II] CCNc1nc(C(F)(F)F)ccc1/C=C/C(=O)NCc1ccc(NS(C)(=O)=O)c(F)c1 [Example 256]
[III] CCCCc1nc(C(F)(F)F)ccc1/C=C/C(=O)NCc1ccc(NS(C)(=O)=O)c(F)c1 [Example 143]
[IV] CCCc1nc(C(F)(F)F)ccc1/C=C/C(=O)NCc1ccc(NS(C)(=O)=O)cc1 [Example 252]
[V] CCCCc1nc(C(F)(F)F)ccc1C#CC(=O)N[C@H](C)c1ccc(NS(C)(=O)=O)c(F)c1 [Example 274]
INPUT: Hi! Can you put these in order of IC50, lowest number first? Present the labels in the sequence the task asks for.
OUTPUT: II, III, IV, I, V
(II: 68 nM, III: 200 nM, IV: 330 nM, I: 500 nM, V: 1200 nM)

---

Biological target: vanilloid receptor (Rattus norvegicus)
Construct: DRG nerve cells from the primary culture of 2 days were equilibrated; endogenous in cells; host or cells: primary culture of dorsal root ganglion neurons from neonatal SD rats
Assay: 45Ca influx test in cultured neonatal rat DRG neurons, inhibition of capsaicin response
Assay type: cell-based
Conditions: neonatal rat DRG neurons, capsaicin 0.5 μM, 45Ca influx; read-out: Antagonist Calcium Uptake Test (IC50)
measured.attribute: IC50 (nM)

[a] CCCCc1nc(C(F)(F)F)ccc1/C=C/C(=O)NCc1ccc(NS(C)(=O)=O)c(C)c1
[b] CC(C)Cc1nc(C(F)(F)F)ccc1/C=C/C(=O)NCc1ccc(NS(C)(=O)=O)cc1
INPUT: Param metric = IC50; output whichever of a , b has the minimum value. Mark your answer with the label of the selected entry.
OUTPUT: a
(a: 76 nM, b: 770 nM)

[I] CS(=O)(=O)Nc1ccc(CNC(=O)/C=C/c2ccc(C(F)(F)F)nc2Oc2cccnc2)cc1F
[II] CCCCc1nc(C(F)(F)F)ccc1/C=C/C(=O)N[C@H](C)c1cc(F)c(NS(C)(=O)=O)c(F)c1
[III] C[C@@H](NC(=O)/C=C/c1ccc(C(F)(F)F)nc1N(C)c1ccccc1)c1ccc(NS(C)(=O)=O)c(F)c1
[IV] CCCCc1nc(C(F)(F)F)ccc1C#CC(=O)NCc1ccc(NS(C)(=O)=O)cc1Cl
INPUT: Hi! Can you put these in order of IC50, lowest number first? Present the labels in the sequence the task asks for.
OUTPUT: II, III, IV, I
(II: 12 nM, III: 160 nM, IV: 4700 nM, I: 11900 nM)

[A] CS(=O)(=O)Nc1c(F)cc(CNC(=O)/C=C/c2ccc(C(F)(F)F)nc2Nc2ccccc2)cc1C#N
[B] C#Cc1cc(CNC(=O)/C=C/c2ccc(C(F)(F)F)nc2N(CC)CC)cc(F)c1NS(C)(=O)=O
INPUT: Of the two listed items, A and B , which carries the larger IC50 figure? Mark your answer with the label of the selected entry.
OUTPUT: A

[1] CCCc1nc(C(F)(F)F)ccc1/C=C/C(=O)NCc1ccc(NS(C)(=O)=O)cc1Cl
[2] CC(C)Cc1nc(C(F)(F)F)ccc1/C=C/C(=O)NCc1cc(F)c(NS(C)(=O)=O)c(F)c1
INPUT: Param metric = IC50; output whichever of 1 , 2 has the minimum value. Mark your answer with the label of the selected entry.
OUTPUT: 2

[I] C#Cc1cc(CNC(=O)/C=C/c2ccc(C(F)(F)F)nc2NCc2ccccc2)cc(F)c1NS(C)(=O)=O
[II] C=Cc1cc(CNC(=O)/C=C/c2ccc(C(C)(C)C)nc2)ccc1NS(C)(=O)=O
[III] CCCNc1nc(C(F)(F)F)ccc1/C=C/C(=O)NCc1ccc(NS(C)(=O)=O)c(C)c1
[IV] CCNc1nc(C(F)(F)F)ccc1/C=C/C(=O)NCc1cc(F)c(NS(C)(=O)=O)cc1F
INPUT: Hi! Can you put these in order of IC50, lowest number first? Present the labels in the sequence the task asks for.
OUTPUT: III, I, IV, II

[I] C#Cc1cc(CNC(=O)/C=C/c2ccc(C(F)(F)F)nc2N(C)c2ccccc2)cc(F)c1NS(C)(=O)=O
[II] CCCCOc1nc(C(F)(F)F)ccc1/C=C/C(=O)NCc1cc(F)c(NS(C)(=O)=O)c(C#N)c1
[III] CS(=O)(=O)Nc1ccc(CNC(=O)/C=C/c2ccc(C(F)(F)F)nc2N2CCCCC2)cc1F
[IV] C#Cc1cc(CNC(=O)/C=C/c2ccc(C(F)(F)F)nc2CCc2ccccc2)cc(F)c1NS(C)(=O)=O
INPUT: Hi! Can you put these in order of IC50, lowest number first? Present the labels in the sequence the task asks for.
OUTPUT: IV, I, II, III

[a] C#Cc1cc(CNC(=O)/C=C/c2ccc(C(C)(C)C)nc2Br)cc(F)c1NS(C)(=O)=O
[b] CCCCCc1nc(C(F)(F)F)ccc1/C=C/C(=O)NCc1cc(F)c(NS(C)(=O)=O)c(F)c1
INPUT: Of the two listed items, a and b , which carries the larger IC50 figure? Mark your answer with the label of the selected entry.
OUTPUT: b

[A] CCC(C)Nc1nc(C(F)(F)F)ccc1/C=C/C(=O)NCc1cc(C)c(NS(C)(=O)=O)c(F)c1 (stereo not drawn)
[B] CC(C)c1nc(C(F)(F)F)ccc1/C=C/C(=O)NCc1cc(F)c(NS(C)(=O)=O)c(F)c1
[C] CCCc1nc(C(F)(F)F)ccc1/C=C/C(=O)N[C@H](C)c1ccc(NS(C)(=O)=O)c(F)c1
INPUT: Hi! Can you put these in order of IC50, lowest number first? Present the labels in the sequence the task asks for.
OUTPUT: A, C, B
(A: 54 nM, C: 87 nM, B: 190 nM)
